Molecular target: Sigma intracellular receptor 2 (Homo sapiens, UniProt Q5BJF2)
Sequence (Q5BJF2 whole entry): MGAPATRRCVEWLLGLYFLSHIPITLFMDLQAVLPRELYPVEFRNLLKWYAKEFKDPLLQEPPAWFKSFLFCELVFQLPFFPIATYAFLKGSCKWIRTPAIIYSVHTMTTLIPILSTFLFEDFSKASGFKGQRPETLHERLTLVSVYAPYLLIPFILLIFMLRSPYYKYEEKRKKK
Assay: Displacement of […] from human recombinant sigma2 receptor expressed in HEKT cells after 90 mins by microbeta scintillation counting method
ENDPOINT_LABEL: log10 Ki (log10 of the value in nM)

MOLECULE | log10 Ki
CC(=O)N1CC[C@H]2c3cccc(-c4ccccc4)c3OC[C@]21C (racemic) | 3.10
Cc1ccc(N2C[C@@]3(C)NCC[C@H]3c3cc(C)ccc32)cc1 (racemic) | 2.50
CC[C@H]1c2ccc3ccccc3c2OC[C@@]1(C)N (racemic) | 2.50
C[C@@]12COc3ccc(-c4ccccc4)cc3[C@@H]1CCN2 (racemic) | 1.90
COc1ccc2c(c1)[C@@H]1CCN[C@]1(C)CO2 (racemic) | 3.50
CN1CC[C@H]2c3ccccc3N(c3ccccc3)C[C@]21C (racemic) | 2.20
C[C@@]12COc3cc(O)ccc3[C@@H]1CCN2 (racemic) | 3.00
CN1CC[C@H]2c3ccc(O)cc3OC[C@]21C (racemic) | 3.60
C[C@@]12CN(c3ccccc3)c3ccccc3[C@@H]1CCN2 (racemic) | 3.00
Cc1cc(C)c2c(c1)OC[C@@]1(C)NCC[C@@H]21 (racemic) | 2.50
CN1CC[C@H]2c3cccc(-c4ccccc4)c3OC[C@]21C (racemic) | 2.50
C[C@@]12COc3c(-c4ccccc4)cccc3[C@@H]1CCN2 (racemic) | 2.10
C[C@@]12CN(c3ccc(Br)cc3)c3ccc(Br)cc3[C@@H]1CCN2 (racemic) | 1.90
CC[C@H]1c2cc(-c3ccccc3)ccc2OC[C@@]1(C)N (racemic) | 2.50
CC[C@H]1c2c(ccc3ccccc23)OC[C@@]1(C)N (racemic) | 3.30
CC(=O)N1CC[C@H]2c3ccccc3N(c3ccccc3)C[C@]21C (racemic) | 3.10
